- SYSTEM_UNDER_TEST: human TLR9 (Homo sapiens, UniProt Q9NR96)
- Sequence (Q9NR96 26-1032): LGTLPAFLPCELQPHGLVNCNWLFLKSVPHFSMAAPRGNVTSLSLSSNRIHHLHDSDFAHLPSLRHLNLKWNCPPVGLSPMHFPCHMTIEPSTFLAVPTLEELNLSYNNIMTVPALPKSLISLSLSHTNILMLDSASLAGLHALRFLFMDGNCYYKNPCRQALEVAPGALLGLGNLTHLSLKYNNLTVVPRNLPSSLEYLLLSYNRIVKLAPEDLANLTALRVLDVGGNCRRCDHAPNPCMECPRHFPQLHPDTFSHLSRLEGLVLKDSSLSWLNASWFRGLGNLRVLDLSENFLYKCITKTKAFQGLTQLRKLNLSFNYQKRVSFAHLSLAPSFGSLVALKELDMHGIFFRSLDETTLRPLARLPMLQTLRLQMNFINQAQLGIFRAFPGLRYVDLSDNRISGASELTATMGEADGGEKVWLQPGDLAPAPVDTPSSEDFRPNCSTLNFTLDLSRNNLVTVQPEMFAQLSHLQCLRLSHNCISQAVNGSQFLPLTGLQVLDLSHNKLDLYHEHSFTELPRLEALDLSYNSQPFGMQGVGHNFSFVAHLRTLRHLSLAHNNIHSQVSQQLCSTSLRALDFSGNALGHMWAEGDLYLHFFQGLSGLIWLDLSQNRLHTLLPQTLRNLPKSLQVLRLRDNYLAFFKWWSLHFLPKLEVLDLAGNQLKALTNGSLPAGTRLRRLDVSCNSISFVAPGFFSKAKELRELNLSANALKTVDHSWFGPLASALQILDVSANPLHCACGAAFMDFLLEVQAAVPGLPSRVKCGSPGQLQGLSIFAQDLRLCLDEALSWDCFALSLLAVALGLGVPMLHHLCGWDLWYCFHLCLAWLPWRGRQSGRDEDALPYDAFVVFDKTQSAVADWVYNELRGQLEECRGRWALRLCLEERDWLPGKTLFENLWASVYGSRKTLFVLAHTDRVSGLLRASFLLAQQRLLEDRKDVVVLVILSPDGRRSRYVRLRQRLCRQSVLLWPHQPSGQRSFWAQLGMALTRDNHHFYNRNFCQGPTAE
- PROTOCOL_TEXT: TLR9 inhibition reporter assay (HEK-Blue cells, SEAP reporter, ODN2006 stimulation)
- TEST_SETTINGS: HEK-Blue cells overexpressing human TLR9, SEAP reporter, ODN2006 5 nM
pIC50: −log10 of the molar value.
MEASURED_PROPERTY: pIC50

CC(C)c1c(-c2cc(F)c3nccn3c2)[nH]c2ccc(C3CCN(CC(=O)N(C)C)CC3)cc12 ... 4.30 to 6.00

The measured pIC50 that `CNC(=O)CN1CCC(c2ccc3[nH]c(-c4ccn5nc(C)nc5c4)c(C(C)C)c3c2)CC1` showed for human TLR9 (Homo sapiens, UniProt Q9NR96) is 4.30 to 6.00

Tested system human TLR9 (Homo sapiens, UniProt Q9NR96); pIC50 recorded for `COc1cc(-c2[nH]c3ccc(C4CCN(C(=O)CN(C)C)CC4)cc3c2C(C)C)cc2ncnn12` was 4.30 to 6.00

* * *

- SYSTEM_UNDER_TEST: human TLR8 (Homo sapiens)
- Sequence (Q9NR97 27-1041): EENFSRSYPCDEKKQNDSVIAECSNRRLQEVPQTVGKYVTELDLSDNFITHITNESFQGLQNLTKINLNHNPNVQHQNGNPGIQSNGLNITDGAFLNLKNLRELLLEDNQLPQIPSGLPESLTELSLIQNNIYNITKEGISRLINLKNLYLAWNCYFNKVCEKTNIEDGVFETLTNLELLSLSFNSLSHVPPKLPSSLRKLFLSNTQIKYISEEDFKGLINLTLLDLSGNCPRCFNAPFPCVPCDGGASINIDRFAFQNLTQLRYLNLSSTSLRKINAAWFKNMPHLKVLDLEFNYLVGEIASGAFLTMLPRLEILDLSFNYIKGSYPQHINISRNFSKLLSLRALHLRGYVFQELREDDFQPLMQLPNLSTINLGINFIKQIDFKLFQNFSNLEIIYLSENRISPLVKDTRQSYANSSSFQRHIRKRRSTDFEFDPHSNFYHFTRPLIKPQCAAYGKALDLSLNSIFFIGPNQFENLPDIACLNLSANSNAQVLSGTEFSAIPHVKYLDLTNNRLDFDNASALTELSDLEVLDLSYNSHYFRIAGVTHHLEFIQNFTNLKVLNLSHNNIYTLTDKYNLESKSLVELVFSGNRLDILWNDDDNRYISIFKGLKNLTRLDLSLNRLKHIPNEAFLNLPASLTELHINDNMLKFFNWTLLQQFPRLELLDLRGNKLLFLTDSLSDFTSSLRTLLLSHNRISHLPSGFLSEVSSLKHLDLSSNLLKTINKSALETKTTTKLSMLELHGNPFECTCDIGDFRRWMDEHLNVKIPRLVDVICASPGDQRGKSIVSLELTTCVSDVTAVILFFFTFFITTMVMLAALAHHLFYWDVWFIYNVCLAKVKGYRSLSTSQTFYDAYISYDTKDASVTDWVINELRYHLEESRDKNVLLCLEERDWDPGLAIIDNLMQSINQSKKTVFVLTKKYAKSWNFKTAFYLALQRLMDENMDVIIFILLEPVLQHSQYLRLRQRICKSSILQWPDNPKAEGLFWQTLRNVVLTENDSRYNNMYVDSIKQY
- PROTOCOL_TEXT: TLR8 inhibition reporter assay (HEK-Blue cells, SEAP reporter, R848 stimulation)
- TEST_SETTINGS: HEK-Blue cells overexpressing human TLR8, SEAP reporter, R848 15.9 μM
pIC50: −log10 of the molar value.
MEASURED_PROPERTY: pIC50

Record `CCc1c(-c2ccnc3[nH]ncc23)[nH]c2ccc(C3CCN(Cc4c[nH]c(-c5ccccc5)n4)CC3)cc12` , field pIC50: 6.00 to 7.00

The measured pIC50 associated with `CC(C)c1c(-c2ccnc3[nH]ncc23)[nH]c2ccc(C3CCN(CCCN(C)C)CC3)cc12` reads 6.00 to 7.00

// field: pIC50; key: `CC(C)c1c(-c2ccnc3[nH]ncc23)[nH]c2ccc(C3CCN(Cc4nccc5ccccc45)CC3)cc12` ; value = 6.00 to 7.00

For `Cc1cc(-c2[nH]c3ccc(C4CCN(CC#N)CC4)cc3c2C(C)C)cc2cnnn12` the compound record lists pIC50 as > 7.00
